Below, each entry is listed with its recorded IC50.
test: Inhibition of human P-gp expressed in mouse T-cell lymphoma assessed as potentiation of daunorubicin-induced cellular toxicity by measuring daunorubicin IC50 at 10 uM by MTT assay (Rvb = 8.26 +/- 0.62 uM)
readout-kind: IC50 (nM)

molecule: CCOC(=O)C1=CN(Cc2ccccc2)c2ccccc2C1c1ccc(OC)c(OC)c1 (configuration not stated)
readout-kind: IC50
measured: 390
//
molecule: CCOC(=O)C1=CN(Cc2ccccc2)c2ccccc2C1c1cccc(OC)c1 (configuration not stated)
readout-kind: IC50
measured: 860

----------
assay: Inhibition of human P-gp expressed in mouse T-cell lymphoma assessed as potentiation of daunorubicin-induced cellular toxicity by measuring daunorubicin IC50 at 5 uM by MTT assay (Rvb = 8.26 +/- 0.62 uM)
pIC50: −log10 of the molar value.

compound: CCOC(=O)C1=CN(Cc2ccccc2)c2ccccc2C1c1ccc(OC)c(OC)c1 (stereo unspecified)
pIC50: 5.32
